Source: ChEMBL document CHEMBL5365421

Test system: MCF7
assayProcedure: Antiproliferative activity against human MCF7 cells assessed as cell growth inhibition measured after 48 hrs by MTT assay
Type: functional, cell-based
conditionParameters: MCF7, 48 h
reportedMetric: pIC50
// pIC50 here means minus log10 of the molar concentration (mol/L)

{"molecularString": "O=C(NCCO)c1ccc(OCc2noc(-c3ccc(Cl)cc3)n2)cc1", "pIC50": 4.26}

What value of pIC50 has been recorded for this entry: "NCCNC(=O)c1ccc(COc2cccc(OCc3ccccc3)c2)cc1" 4.27

What value of pIC50 has been recorded for this entry: "NC(=O)CNC(=O)c1ccc(OCc2noc(-c3ccc(C(F)(F)F)cc3)n2)cc1" 4.40

What value of pIC50 has been recorded for this entry: "NC(=O)[C@H]1CCCN1C(=O)c1ccc(OCc2noc(-c3ccc(Cl)cc3)n2)cc1" 5.12

What value of pIC50 has been recorded for this entry: "NC(=O)CNCc1ccc(COc2cccc(OCc3ccccc3)c2)cc1" 4.37

====

Readings of IC50 for the listed compounds
experimentalSystem: Sphingosine kinase 2 (Homo sapiens)
Sequence (Q9NRA0 whole entry): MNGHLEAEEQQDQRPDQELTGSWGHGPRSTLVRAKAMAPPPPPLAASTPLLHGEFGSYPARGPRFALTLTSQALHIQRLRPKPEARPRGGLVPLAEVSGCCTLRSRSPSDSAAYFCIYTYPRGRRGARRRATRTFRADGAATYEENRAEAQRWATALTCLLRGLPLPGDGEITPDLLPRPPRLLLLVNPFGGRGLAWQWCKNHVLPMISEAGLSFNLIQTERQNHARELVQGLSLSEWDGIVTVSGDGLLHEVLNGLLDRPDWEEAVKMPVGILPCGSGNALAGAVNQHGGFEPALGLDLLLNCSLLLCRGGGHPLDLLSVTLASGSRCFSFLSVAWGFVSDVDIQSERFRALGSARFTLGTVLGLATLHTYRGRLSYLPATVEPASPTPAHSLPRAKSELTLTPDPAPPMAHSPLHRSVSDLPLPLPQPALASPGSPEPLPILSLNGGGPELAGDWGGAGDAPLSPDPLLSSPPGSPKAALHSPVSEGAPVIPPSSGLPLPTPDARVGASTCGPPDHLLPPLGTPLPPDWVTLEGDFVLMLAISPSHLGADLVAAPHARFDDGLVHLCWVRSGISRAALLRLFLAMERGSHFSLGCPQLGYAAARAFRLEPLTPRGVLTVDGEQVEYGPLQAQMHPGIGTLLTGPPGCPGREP
// return numeric value only (unit: µM, not printed)

{"molecularString": "NC(=O)CNCc1ccc(COc2cccc(OCc3ccccc3)c2)cc1", "IC50 (µM)": 0.0462}

Turning now to a further compound:
What value of IC50 has been recorded for this entry: "CCCCCOc1ccc2cc(-c3noc([C@@H]4[C@@H](O)CCN4C(=N)N)n3)ccc2c1" 4

====

Readings of IC50 for the listed compounds
Test system: MCF7
assayProcedure: Antiproliferative activity against human MCF7 cells assessed as cell growth inhibition measured after 48 hrs by MTT assay
Assay type: functional, cell-based
conditionParameters: MCF7, 48 h

As a guide, the following entries are already answered.
{"compound": "NCCNC(=O)c1ccc(OCc2noc(-c3ccc(Cl)cc3)n2)cc1", "experimentalSystem": "MCF7", "IC50": "54 µM"}
{"compound": "OCC1CCCN1Cc1ccc(COc2cccc(OCc3ccccc3)c2)cc1 (single isomer, unassigned)", "experimentalSystem": "MCF7", "IC50": "> 100 µM"}
{"compound": "O=C(c1ccc(COc2cccc(OCc3ccccc3)c2)cc1)N1CCC[C@H]1CO", "experimentalSystem": "MCF7", "IC50": "> 100 µM"}

What value of IC50 has been recorded for this entry: "O=C(NCCO)c1ccc(COc2cccc(OCc3ccccc3)c2)cc1" 34.7 µM

What value of IC50 has been recorded for this entry: "NC(=O)CNC(=O)c1ccc(OCc2noc(-c3ccc(Cl)cc3)n2)cc1" 55.4 µM

What value of IC50 has been recorded for this entry: "O=C(c1ccc(OCc2noc(-c3ccc(C(F)(F)F)cc3)n2)cc1)N1CCC[C@H]1CO" 51.9 µM

What value of IC50 has been recorded for this entry: "NCCNC(=O)c1ccc(OCc2noc(-c3ccc(C(F)(F)F)cc3)n2)cc1" 39.6 µM

What value of IC50 has been recorded for this entry: "O=C(c1ccc(OCc2noc(-c3ccc(C(F)(F)F)cc3)n2)cc1)N1CCC[C@@H]1CO" 21.1 µM

====

System: MCF7
assayProcedure: Antiproliferative activity against human MCF7 cells assessed as cell growth inhibition measured after 48 hrs by MTT assay
Type: functional, cell-based
conditionParameters: MCF7, 48 h
reportedMetric: IC50 (µM)
// return numeric value only (unit: µM, not printed)

{"molecularString": "NC(=O)CNC(=O)c1ccc(COc2cccc(OCc3ccccc3)c2)cc1", "reportedMetric": "IC50", "unitAnnotation": "µM", "recordedMeasurement": 20.3}

What value of IC50 has been recorded for this entry: "O=C(c1ccc(OCc2noc(-c3ccc(Cl)cc3)n2)cc1)N1CCC[C@@H]1CO" 45.3

What value of IC50 has been recorded for this entry: "NC(=O)[C@@H]1CCCN1C(=O)c1ccc(OCc2noc(-c3ccc(C(F)(F)F)cc3)n2)cc1" 12.8

====

Assay system Sphingosine kinase 2 (Homo sapiens); read-out recorded as pIC50.
pIC50: −log10 of the molar value.

{"molecularString": "NC(=O)[C@@H]1CCCN1C(=O)c1ccc(COc2cccc(OCc3ccccc3)c2)cc1", "recordedMeasurement": "< 5.00"}
{"molecularString": "NC(=O)[C@@H]1CCCN1C(=O)c1ccc(OCc2noc(-c3ccc(C(F)(F)F)cc3)n2)cc1", "recordedMeasurement": "< 5.00"}

Turning now to a further molecule:
# value lookup — system Sphingosine kinase 2 (Homo sapiens), readout pIC50, item "NC(=O)CNC(=O)c1ccc(OCc2noc(-c3ccc(Cl)cc3)n2)cc1" < 5.00

====

Readings of pIC50 for the listed compounds
Test system: MCF7
assayProcedure: Antiproliferative activity against human MCF7 cells assessed as cell growth inhibition measured after 48 hrs by MTT assay
Format: functional, cell-based
conditionParameters: MCF7, 48 h
pIC50: −log10 of the molar value.

As a guide, the following entries are already answered.
{"molecularString": "NC(=O)[C@H]1CCCN1C(=O)c1ccc(COc2cccc(OCc3ccccc3)c2)cc1", "experimentalSystem": "MCF7", "recordedMeasurement": "< 4.00"}
{"molecularString": "NC(=O)[C@@H]1CCCN1C(=O)c1ccc(OCc2noc(-c3ccc(Cl)cc3)n2)cc1", "experimentalSystem": "MCF7", "recordedMeasurement": "< 4.00"}

Turning now to a further compound:
What value of pIC50 has been recorded for this entry: "NC(=O)[C@@H]1CCCN1Cc1ccc(COc2cccc(OCc3ccccc3)c2)cc1" 4.67
